Items are presented alongside their recorded IC50.
- target.system: HSV-1 helicase-primase (Human herpesvirus 1, UniProt P10189+P10236)
- Construct: made in house; host or cells: Sf21 insect cells triply infected with recombinant baculoviruses (UL5, UL8, UL52)
- Sequence (P10192 whole entry): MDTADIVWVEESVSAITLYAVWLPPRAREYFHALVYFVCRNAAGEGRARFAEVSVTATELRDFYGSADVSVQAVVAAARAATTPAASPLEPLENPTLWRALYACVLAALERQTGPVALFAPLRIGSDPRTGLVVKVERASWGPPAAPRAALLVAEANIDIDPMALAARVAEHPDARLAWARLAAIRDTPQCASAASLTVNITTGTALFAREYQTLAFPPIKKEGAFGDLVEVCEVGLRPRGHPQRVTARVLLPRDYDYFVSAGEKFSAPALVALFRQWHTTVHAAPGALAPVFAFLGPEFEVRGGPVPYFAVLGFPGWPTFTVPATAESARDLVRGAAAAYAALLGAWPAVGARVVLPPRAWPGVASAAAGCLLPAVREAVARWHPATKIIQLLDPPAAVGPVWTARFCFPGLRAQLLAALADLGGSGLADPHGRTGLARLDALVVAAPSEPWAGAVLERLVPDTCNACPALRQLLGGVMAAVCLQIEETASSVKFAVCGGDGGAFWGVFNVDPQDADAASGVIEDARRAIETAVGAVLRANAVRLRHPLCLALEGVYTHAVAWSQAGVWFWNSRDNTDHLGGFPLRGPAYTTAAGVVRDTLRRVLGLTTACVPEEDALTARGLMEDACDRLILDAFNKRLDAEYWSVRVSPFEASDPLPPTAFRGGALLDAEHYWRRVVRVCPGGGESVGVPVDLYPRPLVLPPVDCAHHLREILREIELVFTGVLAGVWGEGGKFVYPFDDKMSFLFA
- Sequence (P10236 whole entry): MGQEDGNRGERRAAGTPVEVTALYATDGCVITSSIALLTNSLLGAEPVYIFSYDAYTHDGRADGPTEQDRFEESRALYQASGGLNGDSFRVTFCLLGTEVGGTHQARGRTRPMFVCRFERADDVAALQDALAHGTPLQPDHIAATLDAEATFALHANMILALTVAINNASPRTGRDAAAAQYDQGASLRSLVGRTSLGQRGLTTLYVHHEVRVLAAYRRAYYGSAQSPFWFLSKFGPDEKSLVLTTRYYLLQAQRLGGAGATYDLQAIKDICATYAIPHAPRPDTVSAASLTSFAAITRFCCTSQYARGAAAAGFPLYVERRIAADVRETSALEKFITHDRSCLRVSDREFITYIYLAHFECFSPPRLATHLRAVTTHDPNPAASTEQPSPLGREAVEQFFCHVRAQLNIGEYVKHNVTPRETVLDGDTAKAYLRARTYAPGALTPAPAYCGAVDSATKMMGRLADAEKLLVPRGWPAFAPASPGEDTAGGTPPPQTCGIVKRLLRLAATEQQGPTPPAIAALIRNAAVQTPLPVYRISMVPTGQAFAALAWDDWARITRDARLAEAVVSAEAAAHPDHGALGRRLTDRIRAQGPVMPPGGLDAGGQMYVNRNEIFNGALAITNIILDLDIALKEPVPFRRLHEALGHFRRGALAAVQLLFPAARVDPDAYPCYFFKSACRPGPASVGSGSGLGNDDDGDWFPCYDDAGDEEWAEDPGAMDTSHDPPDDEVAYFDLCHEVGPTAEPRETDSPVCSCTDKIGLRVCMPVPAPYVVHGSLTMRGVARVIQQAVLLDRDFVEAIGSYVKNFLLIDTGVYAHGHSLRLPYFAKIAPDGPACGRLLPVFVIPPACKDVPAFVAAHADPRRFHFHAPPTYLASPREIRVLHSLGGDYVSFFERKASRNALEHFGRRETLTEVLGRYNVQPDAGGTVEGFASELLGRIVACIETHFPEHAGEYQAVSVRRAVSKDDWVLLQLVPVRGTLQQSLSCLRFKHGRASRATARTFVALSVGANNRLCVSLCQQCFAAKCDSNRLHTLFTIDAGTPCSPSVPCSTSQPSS
- Sequence (P10189 whole entry): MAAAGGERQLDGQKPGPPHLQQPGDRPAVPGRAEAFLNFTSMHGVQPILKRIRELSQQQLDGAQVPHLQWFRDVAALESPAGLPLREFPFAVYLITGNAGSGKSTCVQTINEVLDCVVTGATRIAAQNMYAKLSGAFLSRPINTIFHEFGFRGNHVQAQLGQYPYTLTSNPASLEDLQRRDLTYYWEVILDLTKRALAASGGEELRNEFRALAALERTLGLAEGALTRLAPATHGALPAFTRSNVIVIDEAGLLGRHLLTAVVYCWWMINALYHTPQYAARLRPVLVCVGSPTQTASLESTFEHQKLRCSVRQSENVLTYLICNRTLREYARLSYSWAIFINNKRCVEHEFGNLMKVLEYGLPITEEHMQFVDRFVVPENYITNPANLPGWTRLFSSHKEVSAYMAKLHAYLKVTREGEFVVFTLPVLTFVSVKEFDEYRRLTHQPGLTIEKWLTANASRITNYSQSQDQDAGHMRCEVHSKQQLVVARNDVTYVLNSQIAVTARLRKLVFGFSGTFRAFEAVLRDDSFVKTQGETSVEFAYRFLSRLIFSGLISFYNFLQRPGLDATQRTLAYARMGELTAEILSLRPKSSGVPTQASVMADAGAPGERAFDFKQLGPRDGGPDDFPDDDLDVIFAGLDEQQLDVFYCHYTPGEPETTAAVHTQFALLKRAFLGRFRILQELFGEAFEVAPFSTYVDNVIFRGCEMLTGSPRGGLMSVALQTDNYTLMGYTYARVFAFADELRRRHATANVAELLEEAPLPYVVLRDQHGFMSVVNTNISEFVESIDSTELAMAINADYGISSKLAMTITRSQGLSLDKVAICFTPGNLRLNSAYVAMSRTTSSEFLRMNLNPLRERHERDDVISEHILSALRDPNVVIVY
- assay.remarks: HSV-1 DNA-dependent ATPase assay (inhibition of HSV-1 helicase-primase)
- Assay type: biochemical
- test.context: Group 1 Table 1 entries
measure.name: IC50 (nM)

chemical_smiles=C[C@H](c1ccccc1)N(CC(=O)Nc1ccc(-c2csc(N)n2)cc1)C(=O)C1CCCCC1 target_system="HSV-1 helicase-primase (Human herpesvirus 1, UniProt P10189+P10236)" data_value=87
chemical_smiles=CCCC(CCC)N(CC(=O)Nc1ccc(-c2csc(N)n2)cc1)C(=O)OCc1ccccc1 target_system="HSV-1 helicase-primase (Human herpesvirus 1, UniProt P10189+P10236)" data_value=4000
chemical_smiles=Nc1nc(-c2ccc(NC(=O)CN(Cc3cccs3)C(=O)C3CCCCC3)cc2)cs1 target_system="HSV-1 helicase-primase (Human herpesvirus 1, UniProt P10189+P10236)" data_value=63
chemical_smiles=Nc1nc(-c2ccc(NC(=O)CNCCCc3ccccc3)cc2)cs1 target_system="HSV-1 helicase-primase (Human herpesvirus 1, UniProt P10189+P10236)" data_value=7600
chemical_smiles=C[C@@H](NCC(=O)Nc1ccc(-c2csc(N)n2)cc1)c1ccccc1 target_system="HSV-1 helicase-primase (Human herpesvirus 1, UniProt P10189+P10236)" data_value=3700
chemical_smiles=Cc1ccc(CNCC(=O)Nc2ccc(-c3csc(N)n3)cc2)cc1 target_system="HSV-1 helicase-primase (Human herpesvirus 1, UniProt P10189+P10236)" data_value=19000
chemical_smiles=[N-]=[N+]=Nc1ccc(C(=O)N(CC(=O)Nc2ccc(-c3csc(N)n3)cc2)Cc2ccc(Cl)cc2)cc1 target_system="HSV-1 helicase-primase (Human herpesvirus 1, UniProt P10189+P10236)" data_value=840
chemical_smiles=Nc1nc(-c2ccc(NC(=O)CNC(=O)c3ccccn3)cc2)cs1 target_system="HSV-1 helicase-primase (Human herpesvirus 1, UniProt P10189+P10236)" data_value=13000
chemical_smiles=Cc1ccc(CN(CC(=O)Nc2ccc(-c3csc(N)n3)cc2)C(=O)c2ccncc2)cc1 target_system="HSV-1 helicase-primase (Human herpesvirus 1, UniProt P10189+P10236)" data_value=1600
chemical_smiles=Nc1nc(-c2ccc(NC(=O)CN(Cc3cccs3)C(=O)c3ccncc3)cc2)cs1 target_system="HSV-1 helicase-primase (Human herpesvirus 1, UniProt P10189+P10236)" data_value=1700
chemical_smiles=CC(C)(C)OC(=O)NCC(=O)N(CC(=O)Nc1ccc(-c2csc(N)n2)cc1)Cc1ccccc1 target_system="HSV-1 helicase-primase (Human herpesvirus 1, UniProt P10189+P10236)" data_value=650
chemical_smiles=Cc1cccc(C)c1CN(CC(=O)Nc1ccc(-c2csc(N)n2)cc1)C(=O)c1ccncc1 target_system="HSV-1 helicase-primase (Human herpesvirus 1, UniProt P10189+P10236)" data_value=3500
chemical_smiles=Nc1nc(-c2ccc(NC(=O)CN(CCc3ccccn3)C(=O)C3CCCCC3)cc2)cs1 target_system="HSV-1 helicase-primase (Human herpesvirus 1, UniProt P10189+P10236)" data_value=600
